assay: single dose pharmacokinetic study in healthy volunteers; conditions: human, in vivo, 400 mg single dose (capsules), read-out: Mean SCY-635 Plasma Concentration
measured.attribute: concentration at 8 h (ng/mL)
Numeric only. Scale: ng/mL

Need concentration at 8 h, item C/C=C/C[C@@H](C)[C@@H](O)[C@H]1C(=O)N[C@@H](CC)C(=O)N(C)[C@H](SCCN(C)C)C(=O)N(C)[C@@H](CC(C)(C)O)C(=O)N[C@@H](C(C)C)C(=O)N(C)[C@@H](CC(C)C)C(=O)N[C@@H](C)C(=O)N[C@H](C)C(=O)N(C)[C@@H](CC(C)C)C(=O)N(C)[C@@H](CC(C)C)C(=O)N(C)[C@@H](C(C)C)C(=O)N1C [SCY-635]
107

----------
assay: in vitro; details: human
measured.attribute: CC50 at 72 h (µM)
Numeric only. Scale: µM

Need CC50 at 72 h, item C/C=C/C[C@@H](C)[C@@H](O)[C@H]1C(=O)N[C@@H](CC)C(=O)N(C)[C@H](SCCN(C)C)C(=O)N(C)[C@@H](CC(C)(C)O)C(=O)N[C@@H](C(C)C)C(=O)N(C)[C@@H](CC(C)C)C(=O)N[C@@H](C)C(=O)N[C@H](C)C(=O)N(C)[C@@H](CC(C)C)C(=O)N(C)[C@@H](CC(C)C)C(=O)N(C)[C@@H](C(C)C)C(=O)N1C
13.7

----------
experiment: 500 mg b.i.d. 14-day pharmacokinetic study in healthy volunteers; settings: human, in vivo, 264 h post first dose, read-out: Mean SCY-635 Plasma Concentration
measured.attribute: concentration at 264 h (ng/mL)
Numeric only. Scale: ng/mL

Need concentration at 264 h, item C/C=C/C[C@@H](C)[C@@H](O)[C@H]1C(=O)N[C@@H](CC)C(=O)N(C)[C@H](SCCN(C)C)C(=O)N(C)[C@@H](CC(C)(C)O)C(=O)N[C@@H](C(C)C)C(=O)N(C)[C@@H](CC(C)C)C(=O)N[C@@H](C)C(=O)N[C@H](C)C(=O)N(C)[C@@H](CC(C)C)C(=O)N(C)[C@@H](CC(C)C)C(=O)N(C)[C@@H](C(C)C)C(=O)N1C [SCY-635]
411
